tested on: 616215-338-R-J1-PDC tumor spheroids, viability; test: Anticancer human tumor 616215-338-R-J1-PDC patient-derived colon adenocarcinoma cell line growth inhibition [GQUAD]; settings: second compound 1 µM; first compound 0.0316 µM; stronger effect = lower value; spheroids with HUVEC and MSC

- COMPOUND: "CC(C)n1c(=O)n(C)c2cnc3cc(F)c(-c4ccc(OCCCN5CCCCC5)nc4)cc3c21 + CN(C)c1ccc(Nc2c3ccc(NC(=O)CCN4CCCC4)cc3nc3cc(NC(=O)CCN4CCCC4)ccc23)cc1"
  MEASURE_UNIT: "%"
  viability, T/C: 101
- COMPOUND: "CC(=O)O[C@H]1C(=O)[C@@]2(C)[C@H]([C@H](OC(=O)c3ccccc3)[C@]3(O)C[C@H](OC(=O)[C@H](O)[C@@H](NC(=O)c4ccccc4)c4ccccc4)C(C)=C1C3(C)C)[C@]1(OC(C)=O)CO[C@@H]1C[C@@H]2O + Cc1cnc(CNC(=O)c2c(=O)c3ccc(N4CCCN(C)CC4)nc3n3c2sc2ccccc23)cn1"
  MEASURE_UNIT: "%"
  viability, T/C: 22.9
- COMPOUND: "COc1cc(C2c3cc4c(cc3C(OC3OC5COC(C)OC5C(O)C3O)C3COC(=O)C23)OCO4)cc(OC)c1O (stereo not given) + CN(C)c1ccc(Nc2c3ccc(NC(=O)CCN4CCCC4)cc3nc3cc(NC(=O)CCN4CCCC4)ccc23)cc1"
  MEASURE_UNIT: "%"
  viability, T/C: 100
- COMPOUND: "COc1cc(C2c3cc4c(cc3C(OC3OC5COC(C)OC5C(O)C3O)C3COC(=O)C23)OCO4)cc(OC)c1O (stereo not given) + Cc1cnc(CNC(=O)c2c(=O)c3ccc(N4CCCN(C)CC4)nc3n3c2sc2ccccc23)cn1"
  MEASURE_UNIT: "%"
  viability, T/C: 32.3
- COMPOUND: "COc1cccc2c1C(=O)c1c(O)c3c(c(O)c1C2=O)CC(O)(C(=O)CO)CC3OC1CC(N)C(O)C(C)O1 (stereo not given) + CN(C)c1ccc(Nc2c3ccc(NC(=O)CCN4CCCC4)cc3nc3cc(NC(=O)CCN4CCCC4)ccc23)cc1"
  MEASURE_UNIT: "%"
  viability, T/C: 102
- COMPOUND: "Cn1ncnc1[C@H]1c2n[nH]c(=O)c3cc(F)cc(c23)N[C@@H]1c1ccc(F)cc1 + CN(C)c1ccc(Nc2c3ccc(NC(=O)CCN4CCCC4)cc3nc3cc(NC(=O)CCN4CCCC4)ccc23)cc1"
  MEASURE_UNIT: "%"
  viability, T/C: 103
- COMPOUND: "Nc1ccn(C2OC(CO)C(O)C2(F)F)c(=O)n1 (stereo not given) + Cc1[nH]c2ccc(F)cc2c1-c1nc2c3cccnc3c3ncccc3c2[nH]1"
  MEASURE_UNIT: "%"
  viability, T/C: 39.2
- COMPOUND: "C=CCn1c(=O)c2cnc(Nc3ccc(N4CCN(C)CC4)cc3)nc2n1-c1cccc(C(C)(C)O)n1 + Cc1[nH]c2ccc(F)cc2c1-c1nc2c3cccnc3c3ncccc3c2[nH]1"
  MEASURE_UNIT: "%"
  viability, T/C: 103
- COMPOUND: "CC(C)(O)C1CCC(Nc2ccc3ncc(-c4cccc(C(F)(F)F)c4)n3n2)CC1 (stereo not given) + Cc1[nH]c2ccc(F)cc2c1-c1nc2c3cccnc3c3ncccc3c2[nH]1"
  MEASURE_UNIT: "%"
  viability, T/C: 97
- COMPOUND: "COc1ncnc(C2CC2)c1-c1ncc2cnn(Cc3ccc(-c4nc(C(F)(F)F)cn4C(C)C)cc3)c2n1 + Cc1cnc(CNC(=O)c2c(=O)c3ccc(N4CCCN(C)CC4)nc3n3c2sc2ccccc23)cn1"
  MEASURE_UNIT: "%"
  viability, T/C: 22.7

----------
Listing of recorded viability, T/C by entry.
test system: 616215-338-R-J1-PDC tumor spheroids, viability; assay: Anticancer human tumor 616215-338-R-J1-PDC cell line growth inhibition [GQUAD]; details: second compound 3.16 µM; first compound 1 µM; stronger effect = lower value; spheroids with HUVEC and MSC;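 note: spheroids exposed to agents for 7 days before readout; percent viability relative to DMSO vehicle control wells taken as 100%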
PARAMETER: viability, T/C (%)

- MOLECULE: "Cc1cccc(N(C)C(=O)C2C(O)CCN2c2nc(C)cc(C(F)(F)F)c2C#N)c1 (stereo not drawn) + Cc1cnc(CNC(=O)c2c(=O)c3ccc(N4CCCN(C)CC4)nc3n3c2sc2ccccc23)cn1"
  SYSTEM_TESTED: "616215-338-R-J1-PDC tumor spheroids, viability"
  NUMBER: 30.5
- MOLECULE: "CC1COCCN1c1cc(-c2ccnn2C)c2ccnc(-c3ccn[nH]3)c2n1 (stereo not drawn) + Cc1cnc(CNC(=O)c2c(=O)c3ccc(N4CCCN(C)CC4)nc3n3c2sc2ccccc23)cn1"
  SYSTEM_TESTED: "616215-338-R-J1-PDC tumor spheroids, viability"
  NUMBER: 24.4
- MOLECULE: "O=c1[nH]cc(F)c(=O)[nH]1 + Cc1[nH]c2ccc(F)cc2c1-c1nc2c3cccnc3c3ncccc3c2[nH]1"
  SYSTEM_TESTED: "616215-338-R-J1-PDC tumor spheroids, viability"
  NUMBER: 37.6
- MOLECULE: "COc1cc(C2c3cc4c(cc3C(OC3OC5COC(C)OC5C(O)C3O)C3COC(=O)C23)OCO4)cc(OC)c1O (stereo not drawn) + Cc1cnc(CNC(=O)c2c(=O)c3ccc(N4CCCN(C)CC4)nc3n3c2sc2ccccc23)cn1"
  SYSTEM_TESTED: "616215-338-R-J1-PDC tumor spheroids, viability"
  NUMBER: 27
- MOLECULE: "C#Cc1c(F)ccc2cc(O)cc(-c3ncc4c(N5CC6CCC(C5)N6)nc(OCC56CCCN5CC(F)C6)nc4c3F)c12 (stereo not drawn) + Cc1cnc(CNC(=O)c2c(=O)c3ccc(N4CCCN(C)CC4)nc3n3c2sc2ccccc23)cn1"
  SYSTEM_TESTED: "616215-338-R-J1-PDC tumor spheroids, viability"
  NUMBER: 15.6
- MOLECULE: "Nc1ccn(C2OC(CO)C(O)C2(F)F)c(=O)n1 (stereo not drawn) + CN(C)c1ccc(Nc2c3ccc(NC(=O)CCN4CCCC4)cc3nc3cc(NC(=O)CCN4CCCC4)ccc23)cc1"
  SYSTEM_TESTED: "616215-338-R-J1-PDC tumor spheroids, viability"
  NUMBER: 8.37
- MOLECULE: "CC(C)(O)C1CCC(Nc2ccc3ncc(-c4cccc(C(F)(F)F)c4)n3n2)CC1 (stereo not drawn) + Cc1cnc(CNC(=O)c2c(=O)c3ccc(N4CCCN(C)CC4)nc3n3c2sc2ccccc23)cn1"
  SYSTEM_TESTED: "616215-338-R-J1-PDC tumor spheroids, viability"
  NUMBER: 3.87
- MOLECULE: "O=C(c1cc(Cc2n[nH]c(=O)c3ccccc23)ccc1F)N1CCN(C(=O)C2CC2)CC1 + Cc1cnc(CNC(=O)c2c(=O)c3ccc(N4CCCN(C)CC4)nc3n3c2sc2ccccc23)cn1"
  SYSTEM_TESTED: "616215-338-R-J1-PDC tumor spheroids, viability"
  NUMBER: 28.7
- MOLECULE: "O=C(NO)c1cnc(N2CCN(S(=O)(=O)c3ccc4ccccc4c3)CC2)nc1 + CN(C)c1ccc(Nc2c3ccc(NC(=O)CCN4CCCC4)cc3nc3cc(NC(=O)CCN4CCCC4)ccc23)cc1"
  SYSTEM_TESTED: "616215-338-R-J1-PDC tumor spheroids, viability"
  NUMBER: 0.25
- MOLECULE: "CC1COCCN1c1cc(C2(O)CC3CCC(C2)O3)c2cnn(-c3ccn[nH]3)c2n1 (stereo not drawn) + Cc1cnc(CNC(=O)c2c(=O)c3ccc(N4CCCN(C)CC4)nc3n3c2sc2ccccc23)cn1"
  SYSTEM_TESTED: "616215-338-R-J1-PDC tumor spheroids, viability"
  NUMBER: 20.7
- MOLECULE: "Cc1cccc(N(C)C(=O)C2C(O)CCN2c2nc(C)cc(C(F)(F)F)c2C#N)c1 (stereo not drawn) + Cc1[nH]c2ccc(F)cc2c1-c1nc2c3cccnc3c3ncccc3c2[nH]1"
  SYSTEM_TESTED: "616215-338-R-J1-PDC tumor spheroids, viability"
  NUMBER: 91.6
- MOLECULE: "COc1ncnc(C2CC2)c1-c1ncc2cnn(Cc3ccc(-c4nc(C(F)(F)F)cn4C(C)C)cc3)c2n1 + Cc1cnc(CNC(=O)c2c(=O)c3ccc(N4CCCN(C)CC4)nc3n3c2sc2ccccc23)cn1"
  SYSTEM_TESTED: "616215-338-R-J1-PDC tumor spheroids, viability"
  NUMBER: 26.7
- MOLECULE: "C=CCn1c(=O)c2cnc(Nc3ccc(N4CCN(C)CC4)cc3)nc2n1-c1cccc(C(C)(C)O)n1 + Cc1cnc(CNC(=O)c2c(=O)c3ccc(N4CCCN(C)CC4)nc3n3c2sc2ccccc23)cn1"
  SYSTEM_TESTED: "616215-338-R-J1-PDC tumor spheroids, viability"
  NUMBER: 17.5
